- System: PXR:RXRa (NR concentration 270 nM, RXRa partner concentration 90 nM)
- ASSAY REMARKS: PBM binding z-score (relative to random genomic background probes); higher = stronger binding; sequences stand for … in GC…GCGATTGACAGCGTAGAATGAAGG
Binned PBM binding z-score; ranges: bin 0 (below 0.1), bin 1 (0.1 to below 3), bin 2 (3 or more)

Into which bin does this sequence go? `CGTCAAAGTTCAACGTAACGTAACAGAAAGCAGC` bin 2

Into which bin does this sequence go? `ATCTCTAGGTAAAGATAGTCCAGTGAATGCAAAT` bin 0

Into which bin does this sequence go? `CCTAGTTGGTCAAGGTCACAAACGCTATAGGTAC` bin 2

Into which bin does this sequence go? `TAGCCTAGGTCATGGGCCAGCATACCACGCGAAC` bin 1

Into which bin does this sequence go? `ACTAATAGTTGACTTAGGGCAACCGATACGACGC` bin 0

Into which bin does this sequence go? `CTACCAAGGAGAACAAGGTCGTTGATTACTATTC` bin 1

Into which bin does this sequence go? `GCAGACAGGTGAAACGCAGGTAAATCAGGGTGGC` bin 0

Into which bin does this sequence go? `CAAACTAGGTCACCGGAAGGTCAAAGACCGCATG` bin 2

Into which bin does this sequence go? `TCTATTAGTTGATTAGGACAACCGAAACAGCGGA` bin 1

Into which bin does this sequence go? `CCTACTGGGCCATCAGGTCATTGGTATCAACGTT` bin 1
